system: T1, human LAG-3 on cells (HEK293-hLAG-3 stable cell line) (human, UniProt P18627 23-525)
T1 sequence: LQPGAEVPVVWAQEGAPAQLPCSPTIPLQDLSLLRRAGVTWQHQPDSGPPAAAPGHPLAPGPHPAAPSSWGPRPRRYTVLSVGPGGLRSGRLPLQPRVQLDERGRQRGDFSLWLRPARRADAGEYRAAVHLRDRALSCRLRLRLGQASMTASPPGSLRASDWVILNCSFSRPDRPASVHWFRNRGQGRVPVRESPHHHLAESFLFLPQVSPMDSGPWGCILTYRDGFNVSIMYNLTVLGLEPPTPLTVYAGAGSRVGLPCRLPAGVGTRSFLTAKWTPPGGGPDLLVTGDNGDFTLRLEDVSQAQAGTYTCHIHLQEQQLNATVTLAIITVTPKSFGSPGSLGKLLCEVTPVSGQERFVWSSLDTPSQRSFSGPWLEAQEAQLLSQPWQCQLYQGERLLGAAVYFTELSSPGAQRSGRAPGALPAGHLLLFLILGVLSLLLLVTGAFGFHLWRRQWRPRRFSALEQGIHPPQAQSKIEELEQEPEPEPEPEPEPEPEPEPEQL
run_description: FACS, HEK293-hLAG-3, antibody 0.013 nM
parameter_measured: Mean fluorescence intensity
// no unit string in output, number only

Previously resolved entries follow.
556F6B8-2 humanized antibody (antibody, V domains shown) VH: QVQLQESGPGLVKPSETLSLTCTVSGFSIIKYGVHWIRQPPGKGLEWIGVIWRGGITDYNAAFMSRVTISVDTSKNQFSLKLSSVTAADTAVYYCARWDGPLAMDYWGQGTTVTVSS VL: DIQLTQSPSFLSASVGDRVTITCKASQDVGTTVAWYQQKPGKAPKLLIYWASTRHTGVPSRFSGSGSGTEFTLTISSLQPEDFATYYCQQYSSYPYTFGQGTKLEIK | 4
556F6B8-3 humanized antibody (antibody, V domains shown) VH: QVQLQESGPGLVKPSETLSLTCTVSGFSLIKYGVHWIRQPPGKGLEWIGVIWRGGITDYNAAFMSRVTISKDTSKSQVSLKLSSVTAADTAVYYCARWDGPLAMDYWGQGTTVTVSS VL: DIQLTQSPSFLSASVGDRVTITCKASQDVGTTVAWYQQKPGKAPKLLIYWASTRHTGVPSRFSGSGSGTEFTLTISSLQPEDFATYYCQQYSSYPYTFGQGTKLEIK | 10
556F6B8-1 humanized antibody (antibody, V domains shown) VH: QVQLQESGPGLVKPSETLSLTCTVSGGSISKYGVHWIRQPPGKGLEWIGVIWRGGITDYNAAFMSRVTISVDTSKNQFSLKLSSVTAADTAVYYCARWDGPLAMDYWGQGTTVTVSS VL: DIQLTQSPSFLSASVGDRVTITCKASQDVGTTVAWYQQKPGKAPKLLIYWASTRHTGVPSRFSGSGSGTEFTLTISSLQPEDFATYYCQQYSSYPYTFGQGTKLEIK | 4

Q: # input binder: 556F6B8-8 humanized antibody (antibody, V domains shown) VH: RVQLQESGPGLVKPSETLSLTCTVSGFSLIKYGVHWIRQPPGKGLEWIGVIWRGGITDYNAAFMSRVTISKDTSKSQVSLKLSSVTAADTAVYYCAKWDGPLAMDYWGQGTTVTVSS VL: DIVLTQSPSFLSASVGDRVTITCKASQDVGTTVAWYQQKPGKAPKLLIYWASTRHTGVPSRFSGSGSGTEFTLTISSLQPEDFATYYCQQYSSYPYTFGQGTKLEIK ; wanted: its Mean fluorescence intensity
A: 8

Q: # input binder: 556F6B8-4 humanized antibody (antibody, V domains shown) VH: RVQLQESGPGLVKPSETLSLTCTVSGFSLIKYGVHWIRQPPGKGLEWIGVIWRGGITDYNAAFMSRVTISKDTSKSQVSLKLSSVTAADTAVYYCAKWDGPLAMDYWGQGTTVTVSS VL: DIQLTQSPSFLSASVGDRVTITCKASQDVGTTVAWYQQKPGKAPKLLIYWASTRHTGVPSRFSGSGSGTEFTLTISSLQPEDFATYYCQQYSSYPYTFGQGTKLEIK ; wanted: its Mean fluorescence intensity
A: 7
